Exercise: for every item that follows, state its recorded Binding of serum London to looped/cyclic peptides of protein M of SARS-CoV Urbani.
test system: antibodies in sera from SARS patients (sera 1a, 1b, 2, 6, 37, 62, London, SARS-yellow, SARS-green); assay type: binding, human
One number for each entry.

Worked cases, answers included:
[
  {
    "INPUT SEQUENCE": "GLMWLSYFVASFRLF",
    "NUMBER": 0.3
  },
  {
    "INPUT SEQUENCE": "RSMWSFNPETNILLN",
    "NUMBER": 0.2
  }
]

Batch lookup, Binding of serum London to looped/cyclic peptides of protein M of SARS-CoV Urbani per entry.
1. RCDIKDLPKEITVAT
2. LPKEITVATSRTLSY
3. VTLACFVLAAVYRIN
4. PVTLACFVLAAVYRI
5. RTLSYYKLGASQRVG

1: 0.2; 2: 0.2; 3: 0.3; 4: 0.2; 5: 1.0

Could you tell me Binding of serum London to looped/cyclic peptides of protein M of SARS-CoV Urbani for each of these sequences? They are listed below.
1. LLWPVTLACFVLAAV
2. LMESELVIGAVIIRG
3. SMWSFNPETNILLNV
4. TNILLNVPLRGTIVT

1. 0.3
2. 0.2
3. 0.2
4. 0.2

* * *

Field: Binding of serum SARS-yellow to linear peptides of protein N of SARS-CoV Urbani. Provide a value for each of the sequences that follow.
tested on: antibodies in sera from SARS patients (sera 1a, 1b, 2, 6, 37, 62, London, SARS-yellow, SARS-green); assay type: binding, human

Some entries whose results are on file:
[
  {
    "INPUT SEQUENCE": "VWVATEGALNTPKDH",
    "RESULT": 0.6
  },
  {
    "INPUT SEQUENCE": "KMKELSPRWYFYYLG",
    "RESULT": 0.6
  },
  {
    "INPUT SEQUENCE": "QGVPINTNSGPDDQI",
    "RESULT": 0.6
  }
]

Take each entry in turn and give its Binding of serum SARS-yellow to linear peptides of protein N of SARS-CoV Urbani.
1. RFPRGQGVPINTNSG
2. IAQFAPSASAFFGMS

1. 0.6
2. 0.6

* * *

system: rabbit serum obtained by immunizing a rabbit with the SARS-CoV strain Frankfurt 1; assay type: binding; parameters: unit not given here
MEASURE NAME: Binding of a rabbit serum to linear peptides
Numbers only.

Reference set (5 entries):
[
  {
    "INPUT SEQUENCE": "PKLKEDYQIGGYSED",
    "NUMBER": 0.1
  },
  {
    "INPUT SEQUENCE": "SRRRLLACLCKHKKV",
    "NUMBER": 0.3
  },
  {
    "INPUT SEQUENCE": "MDLFMRFFTLGSITA",
    "NUMBER": 0.5
  },
  {
    "INPUT SEQUENCE": "FLQCINACRIIMRCW",
    "NUMBER": 0.1
  },
  {
    "INPUT SEQUENCE": "QPVKIDNASPASTVH",
    "NUMBER": 0.1
  }
]

Would you be so kind as to report Binding of a rabbit serum to linear peptides for each listed record?
1. KGFQFICNLLLLFVT
2. ELLIQQWIQFMMSRR
3. YVVVHGYFTEVYYQL
4. DYCIPYNSVTDTIVV
5. QTLVLKMLHSSSLTS

0.6
0.4
0.1
0.1
0.3

* * *

tested on: antibodies in sera from SARS patients (sera 1a, 1b, 2, 6, 37, 62, London, SARS-yellow, SARS-green); type: binding, human
Would you mind telling me the reported Binding of serum SARS-yellow to linear peptides of protein N of SARS-CoV Urbani of each entry?
Numbers only.

Worked set:
[
  {
    "INPUT SEQUENCE": "GKMKELSPRWYFYYL",
    "NUMBER": 0.6
  },
  {
    "INPUT SEQUENCE": "SPRWYFYYLGTGPEA",
    "NUMBER": 0.6
  },
  {
    "INPUT SEQUENCE": "RWYFYYLGTGPEASL",
    "NUMBER": 0.6
  },
  {
    "INPUT SEQUENCE": "EGIVWVATEGALNTP",
    "NUMBER": 0.6
  },
  {
    "INPUT SEQUENCE": "QRQKKQPTVTLLPAA",
    "NUMBER": 0.6
  },
  {
    "INPUT SEQUENCE": "NNTASWFTALTQHGK",
    "NUMBER": 0.5
  },
  {
    "INPUT SEQUENCE": "FSRQLQNSMSGASAD",
    "NUMBER": 0.4
  },
  {
    "INPUT SEQUENCE": "RVRGGDGKMKELSPR",
    "NUMBER": 0.7
  }
]

Dear colleague, could you please provide Binding of serum SARS-yellow to linear peptides of protein N of SARS-CoV Urbani for the sequences listed below?
1. YRRATRRVRGGDGKM
2. NGPQSNQRSAPRITF
3. ASWFTALTQHGKEEL

[0.6, 0.5, 0.4]

Value lookup for Binding of serum SARS-yellow to linear peptides of protein N of SARS-CoV Urbani; key = `GARPKQRRPQGLPNN`
0.6

* * *

test system: rabbit serum obtained by immunizing a rabbit with the SARS-CoV strain Frankfurt 1; type: binding; parameters: unit not given here
Where Binding of a rabbit serum to linear peptides equals or exceeds 0.3, the correct label is class 1; where it does not, the label is class 0.

[
  {
    "INPUT SEQUENCE": "QITTDTGIENATFFI",
    "TESTED ON": "rabbit serum obtained by immunizing a rabbit with the SARS-CoV strain Frankfurt 1",
    "ASSIGNED LABEL": "class 0"
  },
  {
    "INPUT SEQUENCE": "SGVKDYVVVHGYFTE",
    "TESTED ON": "rabbit serum obtained by immunizing a rabbit with the SARS-CoV strain Frankfurt 1",
    "ASSIGNED LABEL": "class 0"
  },
  {
    "INPUT SEQUENCE": "TQITTDTGIENATFF",
    "TESTED ON": "rabbit serum obtained by immunizing a rabbit with the SARS-CoV strain Frankfurt 1",
    "ASSIGNED LABEL": "class 0"
  }
]

Form field: Binding of a rabbit serum to linear peptides at least 0.3? Entry: `DTIVVTEGDGISTPK`
class 0

Say whether `FICNLLLLFVTIYSH` shows Binding of a rabbit serum to linear peptides of 0.3 or more.
class 0

Given `TMTTVYHITVSQIQL` , state whether its Binding of a rabbit serum to linear peptides is at least 0.3.
class 1

Quick check, Binding of a rabbit serum to linear peptides >= 0.3? `VHATATIPLQASLPF`
class 0

Is Binding of a rabbit serum to linear peptides for `IVVTEGDGISTPKLK` at or above 0.3?
class 0

# check: Binding of a rabbit serum to linear peptides of `NYFVCWHTHNYDYCI` is greater than or equal to 0.3
class 0

Please tell me: is the sequence `LKTHRMCKYTQSTAL` at or over 0.3 in terms of Binding of a rabbit serum to linear peptides?
class 1

Given `MTTVYHITVSQIQLS` , state whether its Binding of a rabbit serum to linear peptides is at least 0.3.
class 1

Could you verify whether the entry `LLIQQWIQFMMSRRR` shows Binding of a rabbit serum to linear peptides of no less than 0.3?
class 1

* * *

test system: rabbit serum obtained by immunizing a rabbit with the SARS-CoV strain Frankfurt 1; type: binding; design: unit not given here
MEASURE NAME: Binding of a rabbit serum to linear peptides

Give one value of Binding of a rabbit serum to linear peptides per listed sequence.
1. YSRVKNLNSSEGVPD
2. VLKMLHSSSLTSLLK
3. VVHGYFTEVYYQLES
4. YVYSRVKNLNSSEGV
5. LHKLLQTLVLKMLHS
6. FLYLYALIYFLQCIN

1. 0.3
2. 0.2
3. 0.1
4. 1.2
5. 0.2
6. 0.1

Source listed as patent US20070128217A1.
